# test system: HLA-A*02:01 (Homo sapiens, UniProt P04439, D140Y/D185E/D98H/E176V/E277Q/G131W/G231S/I119V/I121R/I166T/I218V/L300P/L318F/N151K/N90K/P208A/P217A/Q86G/Q94H/R138H/R169H/T345S)
# assay method text: MHC binding assay (UV-ligand exchange, anti-β2m ELISA, peptide exchange yield)
# measurement parameters: binding to HLA-A*02:01
parameter measured: Peptide exchange (MHC class I binding score, peptide exchange yield)

substance	observed measurement
47 (ILLSVPLLVV; listed as Homo sapiens) [compound 47]	“++” (>20% = ++)
217 (ALIHPVSTV; listed as Homo sapiens) [compound 217]	“++” (>20% = ++)
176 (YLMEGSYNKVFL; listed as Homo sapiens) [compound 176]	“++” (>20% = ++)

---

# test system: HLA-A*02:01 (Homo sapiens, UniProt P04439, D140Y/D185E/D98H/E176V/E277Q/G131W/G231S/I119V/I121R/I166T/I218V/L300P/L318F/N151K/N90K/P208A/P217A/Q86G/Q94H/R138H/R169H/T345S)
# assay method text: MHC binding assay (UV-ligand exchange, anti-β2m ELISA, peptide exchange yield)
# measurement parameters: binding to HLA-A*02:01
parameter measured: Peptide exchange (MHC class I binding score, peptide exchange yield)

substance	observed measurement
452 (ILLEHGADPNL; listed as Homo sapiens) [compound 452]	“+++” (>50 = +++)
188 (GLFPVTPEAV; listed as Homo sapiens) [compound 188]	“+++” (>50 = +++)
92 (YLIPFTGIVGL; listed as Homo sapiens) [compound 92]	“++” (>20% = ++)
201 (RLVDYLEGI; listed as Homo sapiens) [compound 201]	“+++” (>50 = +++)
550 (FLYDEIEAEVNL; listed as Homo sapiens) [compound 550]	“+++” (>50 = +++)
90 (TLLQIIETV; listed as Homo sapiens) [compound 90]	“+++” (>50 = +++)
216 (NLWEDPYYL; listed as Homo sapiens) [compound 216]	“+++” (>50 = +++)
287 (FLNEFFLNV; listed as Homo sapiens) [compound 287]	“+++” (>50 = +++)
238 (YLISFQTHI; listed as Homo sapiens) [compound 238]	“+++” (>50 = +++)
315 (YLQDVVEQA; listed as Homo sapiens) [compound 315]	“+++” (>50 = +++)
543 (GLLPTPITQQASL; listed as Homo sapiens) [compound 543]	“+++” (>50 = +++)
336 (ILLTAIVQV; listed as Homo sapiens) [compound 336]	“+++” (>50 = +++)
337 (HLLSELEAAPYL; listed as Homo sapiens) [compound 337]	“++++” (>75% = ++++)
101 (ILVGGGALATV; listed as Homo sapiens) [compound 101]	“+++” (>50 = +++)
561 (YLQLTQSEL; listed as Homo sapiens) [compound 561]	“+++” (>50 = +++)
504 (GLSDGNPSL; listed as Homo sapiens) [compound 504]	“++” (>20% = ++)
85 (KMSELRVTL; listed as Homo sapiens) [compound 85]	“+++” (>50 = +++)
606 (ALWETEVYI; listed as Homo sapiens) [compound 606]	“+++” (>50 = +++)
89 (YILPTETIYV; listed as Homo sapiens) [compound 89]	“++++” (>75% = ++++)
462 (KLAKQPETV; listed as Homo sapiens) [compound 462]	“+++” (>50 = +++)
142 (FLFATPVFI; listed as Homo sapiens) [compound 142]	“+++” (>50 = +++)
38 (FLLEDDIHVS; listed as Homo sapiens) [compound 38]	“+++” (>50 = +++)
582 (TLCDVILMV; listed as Homo sapiens) [compound 582]	“+++” (>50 = +++)
538 (LLLAHIIAL; listed as Homo sapiens) [compound 538]	“++” (>20% = ++)
247 (VLLPNDLLEKV; listed as Homo sapiens) [compound 247]	“+++” (>50 = +++)
36 (YVLEDLEVTV; listed as Homo sapiens) [compound 36]	“++” (>20% = ++)
560 (ALWDIETGQQTTT; listed as Homo sapiens) [compound 560]	“+++” (>50 = +++)

---

# test system: HLA-A*02:01 (Homo sapiens, UniProt P04439, D140Y/D185E/D98H/E176V/E277Q/G131W/G231S/I119V/I121R/I166T/I218V/L300P/L318F/N151K/N90K/P208A/P217A/Q86G/Q94H/R138H/R169H/T345S)
# assay method text: MHC binding assay (UV-ligand exchange, anti-β2m ELISA, peptide exchange yield)
# measurement parameters: binding to HLA-A*02:01
# From the text: Candidate peptides for T cell based therapies according to the present invention were further tested for their MHC binding capacity (affinity). The individual peptide-MHC complexes were produced by UV-ligand exchange, where a UV-sensitive peptide is cleaved upon UV-irradiation, and exchanged with the peptide of interest as analyzed. Only peptide candidates that can effectively bind and stabilize the peptide-receptive MHC molecules prevent dissociation of the MHC complexes. […]
parameter measured: Peptide exchange (MHC class I binding score, peptide exchange yield)

substance	observed measurement
570 (ALANQIPTV; listed as Homo sapiens) [compound 570]	“++” (>20% = ++)
13 (YLMDESLNL; listed as Homo sapiens) [compound 13]	“+++” (>50 = +++)
123 (NLWDLTDASVV; listed as Homo sapiens) [compound 123]	“+++” (>50 = +++)
257 (SIFSAFLSV; listed as Homo sapiens) [compound 257]	“+++” (>50 = +++)
155 (RVANLHFPSV; listed as Homo sapiens) [compound 155]	“+++” (>50 = +++)
218 (SALEELVNV; listed as Homo sapiens) [compound 218]	“++” (>20% = ++)
120 (ALLGIPLTLV; listed as Homo sapiens) [compound 120]	“+++” (>50 = +++)
79 (SLFIGEKAVLL; listed as Homo sapiens) [compound 79]	“+++” (>50 = +++)
297 (VLADIELAQA; listed as Homo sapiens) [compound 297]	“+++” (>50 = +++)
263 (LLVSNLDFGV; listed as Homo sapiens) [compound 263]	“+++” (>50 = +++)
559 (VTVPPGPSL; listed as Homo sapiens) [compound 559]	“++” (>20% = ++)
131 (FVPPVTVFPSL; listed as Homo sapiens) [compound 131]	“++” (>20% = ++)
352 (SLLELLHIYV; listed as Homo sapiens) [compound 352]	“+++” (>50 = +++)
87 (ALPEAPAPLLPHIT; listed as Homo sapiens) [compound 87]	“++” (>20% = ++)
307 (ALPVSLPQI; listed as Homo sapiens) [compound 307]	“+++” (>50 = +++)
130 (FLWNGEDSALL; listed as Homo sapiens) [compound 130]	“+++” (>50 = +++)
359 (YLLPESVDL; listed as Homo sapiens) [compound 359]	“+++” (>50 = +++)
531 (YTLPIASSIRL; listed as Homo sapiens) [compound 531]	“+++” (>50 = +++)
408 (VLDDSIYLV; listed as Homo sapiens) [compound 408]	“++” (>20% = ++)
278 (QLLDVVLTI; listed as Homo sapiens) [compound 278]	“++” (>20% = ++)
393 (GLLDTQTSQVLTA; listed as Homo sapiens) [compound 393]	“++” (>20% = ++)
328 (ALNDQVFEI; listed as Homo sapiens) [compound 328]	“+++” (>50 = +++)
149 (NLLELFVQL; listed as Homo sapiens) [compound 149]	“+++” (>50 = +++)
28 (QLLDETSAITL; listed as Homo sapiens) [compound 28]	“+++” (>50 = +++)
405 (ALYDVFLEV; listed as Homo sapiens) [compound 405]	“++” (>20% = ++)
103 (TLAEEVVAL; listed as Homo sapiens) [compound 103]	“+++” (>50 = +++)

---

# test system: HLA-A*02:01 (Homo sapiens, UniProt P04439, D140Y/D185E/D98H/E176V/E277Q/G131W/G231S/I119V/I121R/I166T/I218V/L300P/L318F/N151K/N90K/P208A/P217A/Q86G/Q94H/R138H/R169H/T345S)
# assay method text: MHC binding assay (UV-ligand exchange, anti-β2m ELISA, peptide exchange yield)
# measurement parameters: binding to HLA-A*02:01
parameter measured: Peptide exchange (MHC class I binding score, peptide exchange yield)

substance	observed measurement
96 (YIFTDNPAAV; listed as Homo sapiens) [compound 96]	“+++” (>50 = +++)
486 (AVMESIQGV; listed as Homo sapiens) [compound 486]	“+++” (>50 = +++)
48 (ALAELYEDEV; listed as Homo sapiens) [compound 48]	“+++” (>50 = +++)
523 (YQIPRTFTL; listed as Homo sapiens) [compound 523]	“++” (>20% = ++)
499 (KIFDIDEAEEGV; listed as Homo sapiens) [compound 499]	“++” (>20% = ++)
135 (ALSEVDFQL; listed as Homo sapiens) [compound 135]	“+++” (>50 = +++)
487 (LLINSVFHV; listed as Homo sapiens) [compound 487]	“+++” (>50 = +++)
19 (FMVDNEAIYDI; listed as Homo sapiens) [compound 19]	“++++” (>75% = ++++)
343 (SLLEVNEESTV; listed as Homo sapiens) [compound 343]	“+++” (>50 = +++)
100 (YLLSTNAQL; listed as Homo sapiens) [compound 100]	“++++” (>75% = ++++)
397 (YLFGERLLEC; listed as Homo sapiens) [compound 397]	“+++” (>50 = +++)
391 (YVYPQRLNFV; listed as Homo sapiens) [compound 391]	“+++” (>50 = +++)
279 (ALWGGTQPLL; listed as Homo sapiens) [compound 279]	“++” (>20% = ++)
558 (GLLENIPRV; listed as Homo sapiens) [compound 558]	“+++” (>50 = +++)
602 (YLLEQIKLIEV; listed as Homo sapiens) [compound 602]	“++++” (>75% = ++++)
271 (LVYPLELYPA; listed as Homo sapiens) [compound 271]	“+++” (>50 = +++)
261 (YVLEFLEEI; listed as Homo sapiens) [compound 261]	“++” (>20% = ++)
72 (SLLELDGINL; listed as Homo sapiens) [compound 72]	“+++” (>50 = +++)
495 (FIFSEKPVFV; listed as Homo sapiens) [compound 495]	“+++” (>50 = +++)

Data origin, for the record: patent US10239925B2
